target.or.test.system: Mitogen-activated protein kinase 14 (Homo sapiens, UniProt Q16539)
Sequence (Q16539 whole entry): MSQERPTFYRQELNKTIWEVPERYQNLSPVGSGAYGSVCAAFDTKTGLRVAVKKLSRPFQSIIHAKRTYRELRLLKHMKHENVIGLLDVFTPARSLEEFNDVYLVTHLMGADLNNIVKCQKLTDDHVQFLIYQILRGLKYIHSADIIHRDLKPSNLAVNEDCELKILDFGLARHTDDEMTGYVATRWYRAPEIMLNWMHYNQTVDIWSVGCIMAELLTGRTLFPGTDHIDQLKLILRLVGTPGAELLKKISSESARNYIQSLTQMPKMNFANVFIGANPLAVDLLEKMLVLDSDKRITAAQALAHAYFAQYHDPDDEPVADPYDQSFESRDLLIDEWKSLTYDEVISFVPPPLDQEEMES
assay.text: Percent inhibition determined in vitro against mitogen-activated protein kinase p38 alpha 2 derived from Escherichia coli at 5 uM
Use 30% as the dividing line for inhibition, with the line itself on the True side and lower values as False.

Examples from the recorded data:
{"smiles.data": "COC(=O)c1sc(N)cc1NC(=O)Nc1ccc(C)cc1", "target.or.test.system": "Mitogen-activated protein kinase 14 (Homo sapiens, UniProt Q16539)", "category.label": "True"}
{"smiles.data": "CNC(=O)c1sc(C(C)(C)C)cc1NC(=O)Nc1ccc(C(C)C)cc1", "target.or.test.system": "Mitogen-activated protein kinase 14 (Homo sapiens, UniProt Q16539)", "category.label": "True"}
{"smiles.data": "CNC(=O)c1[nH]c(C(C)(C)C)cc1NC(=O)Nc1cccc2ccccc12", "target.or.test.system": "Mitogen-activated protein kinase 14 (Homo sapiens, UniProt Q16539)", "category.label": "True"}
{"smiles.data": "COC(=O)c1sc(C(C)(C)O)cc1NC(=O)Nc1ccc(C)cc1", "target.or.test.system": "Mitogen-activated protein kinase 14 (Homo sapiens, UniProt Q16539)", "category.label": "True"}
{"smiles.data": "COC(=O)c1sc(CCC(C)C)cc1NC(=O)Nc1ccc(C)cc1", "target.or.test.system": "Mitogen-activated protein kinase 14 (Homo sapiens, UniProt Q16539)", "category.label": "False"}

Here is another compound to look at.
Q: Dear colleague, could you confirm whether COC(=O)c1sc(C(C)(C)C)cc1NC(=O)Nc1ccc(C(C)C)cc1 has inhibition at or above 30%?
Ans: False

###

target.or.test.system: Mitogen-activated protein kinase 14 (Homo sapiens)
assay.text: In vitro inhibition of mitogen-activated protein kinase p38 alpha 2 derived from Escherichia coli
value.type: pIC50
One number for each entry, as −log10 of the molar value.

{"smiles.data": "COC(=O)c1oc(C(C)(C)C)cc1NC(=O)Nc1ccc(Cl)c(Cl)c1", "pIC50": 5.92}
{"smiles.data": "COC(=O)c1[nH]c(C(C)(C)C)cc1NC(=O)Nc1cccc2ccccc12", "pIC50": 7.92}
{"smiles.data": "COC(=O)c1oc(C(C)(C)C)cc1NC(=O)Nc1cccc(Cl)c1Cl", "pIC50": 7.49}
{"smiles.data": "CNC(=O)c1oc(C(C)(C)C)cc1NC(=O)Nc1ccc(C)cc1", "pIC50": 7.49}
{"smiles.data": "CNC(=O)c1[nH]c(C(C)(C)C)cc1NC(=O)Nc1ccc(C)cc1", "pIC50": 7.17}

Parameters: items (list). Returns: pIC50 for each item.
1. COC(=O)c1sc(C(C)(C)C)cc1NC(=O)Nc1ccccc1
2. COC(=O)c1[nH]c(C(C)(C)C)cc1NC(=O)Nc1ccccc1

Ans:
[6.54, 7.36]

Could you report pIC50 for every entry in the following list?
1. COC(=O)c1[nH]c(C(C)(C)C)cc1NC(=O)Nc1cccc(Cl)c1Cl
2. CCc1ccc(NC(=O)Nc2cc(C(C)(C)C)sc2C(=O)OC)cc1
3. COC(=O)c1oc(C(C)(C)C)cc1NC(=O)Nc1ccc(C)cc1
4. COC(=O)c1sc(C(C)(C)C)cc1NC(=O)Nc1ccc(Cl)cc1

Ans:
1. 8.22
2. 6.18
3. 7.14
4. 6.66

###

target.or.test.system: Mitogen-activated protein kinase 14 (Homo sapiens)
assay.text: In vitro inhibition of mitogen-activated protein kinase p38 alpha 2 derived from Escherichia coli
value.type: pIC50
Answers are plain numbers, as −log10 of the molar value.

{"smiles.data": "COC(=O)c1[nH]c(C(C)(C)C)cc1NC(=O)Nc1ccc(Cl)cc1", "pIC50": 7.37}
{"smiles.data": "CNC(=O)c1sc(C(C)(C)C)cc1NC(=O)Nc1ccc(F)cc1", "pIC50": 7.06}
{"smiles.data": "COC(=O)c1[nH]c(C(C)(C)C)cc1NC(=O)Nc1ccccc1Cl", "pIC50": 7.22}
{"smiles.data": "COC(=O)c1c(NC(=O)Nc2ccc(F)cc2)cc(C(C)(C)C)n1C", "pIC50": 6.18}
{"smiles.data": "CNC(=O)c1[nH]c(C(C)(C)C)cc1NC(=O)Nc1cccc2ccccc12", "pIC50": 7.55}
{"smiles.data": "COC(=O)c1c(NC(=O)Nc2ccccc2)cc(C(C)(C)C)n1C", "pIC50": 6.02}

Please state, for each entry, its recorded pIC50.
1. COC(=O)c1c(NC(=O)Nc2cccc(Cl)c2Cl)cc(C(C)(C)C)n1C
2. COC(=O)c1[nH]c(C(C)(C)C)cc1NC(=O)Nc1cccc(Cl)c1
3. CCc1ccc(NC(=O)Nc2cc(C(C)(C)C)sc2C(=O)NC)cc1
4. COC(=O)c1[nH]c(C(C)(C)C)cc1NC(=O)Nc1ccc(C)cc1
5. COC(=O)c1sc(C(C)(C)C)cc1NC(=O)Nc1ccc(O)cc1

Ans:
1. 6.41
2. 7.57
3. 6.92
4. 7.48
5. 6.21

###

target.or.test.system: Mitogen-activated protein kinase 14 (Homo sapiens, UniProt Q16539)
assay.text: Inhibition of p38 alpha-2 kinase
value.type: pIC50
Give bare numbers, as −log10 of the molar value.

Q: Retrieve pIC50 measured for COC(=O)c1sc(C(C)(C)C)cc1NC(=O)Nc1ccc(C)cc1 and print it.
Ans: 6.61

###

target.or.test.system: Mitogen-activated protein kinase 14 (Homo sapiens, UniProt Q16539)
assay.text: Percent inhibition determined in vitro against mitogen-activated protein kinase p38 alpha 2 derived from Escherichia coli at 5 uM
Assignment: determine reported inhibition for the given molecules.
Answers are plain numbers, in %.

{"smiles.data": "COC(=O)c1c(NC(=O)Nc2ccc(F)cc2)cc(C(C)(C)C)n1C", "inhibition / %": 42}
{"smiles.data": "COC(=O)c1sc(C(C)(C)C)cc1NC(=O)Nc1ccc(Cl)cc1", "inhibition / %": 76}
{"smiles.data": "COC(=O)c1sc([N+](=O)[O-])cc1NC(=O)Nc1ccc(C)cc1", "inhibition / %": 0}
{"smiles.data": "COC(=O)c1sc(C(C)(C)C)cc1NC(=O)Nc1ccc(F)cc1", "inhibition / %": 35}
{"smiles.data": "COC(=O)c1sc(C(C)C)cc1NC(=O)Nc1ccc(C)cc1", "inhibition / %": 37}

Quick request: inhibition for each listed item, please.
1. COC(=O)c1sc(CCc2ccccc2)cc1NC(=O)Nc1ccc(C)cc1
2. COC(=O)c1sc(-c2ccccc2)cc1NC(=O)Nc1ccc(C)cc1
3. COC(=O)c1sc(CC(C)C)cc1NC(=O)Nc1ccc(C)cc1

Ans:
17
0
0

Please state, for each entry, its recorded inhibition.
1. COC(=O)c1c(NC(=O)Nc2cccc3ccccc23)cc(C(C)(C)C)n1C
2. COC(=O)c1sc(C(C)(C)C)cc1NC(=O)Nc1ccc(C(C)=O)cc1
3. COC(=O)c1c(NC(=O)Nc2cccc(Cl)c2Cl)cc(C(C)(C)C)n1C

Ans:
[67, 21, 50]

###

target.or.test.system: Mitogen-activated protein kinase 14 (Homo sapiens)
assay.text: In vitro inhibition of mitogen-activated protein kinase p38 alpha 2 derived from Escherichia coli
pIC50: −log10 of the molar value.
Decision: pIC50 >= 7 yields class 1, all other cases yield class 0.

{"smiles.data": "COC(=O)c1c(NC(=O)Nc2ccc(C)cc2)cc(C(C)(C)C)n1C", "category.label": "class 0"}
{"smiles.data": "CNC(=O)c1[nH]c(C(C)(C)C)cc1NC(=O)Nc1cccc(Cl)c1Cl", "category.label": "class 1"}
{"smiles.data": "COC(=O)c1sc(C(C)(C)C)cc1NC(=O)Nc1cccc(Cl)c1Cl", "category.label": "class 0"}

Q: Record COC(=O)c1c(NC(=O)Nc2cccc3ccccc23)cc(C(C)(C)C)n1C ; criterion: pIC50 no lower than 7. Met?
Ans: class 0

Q: Textbook exercise: given the entry COC(=O)c1oc(C(C)(C)C)cc1NC(=O)Nc1ccc(F)cc1 , state whether its pIC50 is greater than or equal to 7.
Ans: class 0

Q: Does pIC50 meet or surpass 7 for COC(=O)c1[nH]c(C(C)(C)C)cc1NC(=O)Nc1ccc(F)cc1 ?
Ans: class 1

Q: Decide: is the reported value of pIC50 for CNC(=O)c1sc(C(C)(C)C)cc1NC(=O)Nc1ccc(C(C)C)cc1 equal to or greater than 7?
Ans: class 0

Q: Does COC(=O)c1sc(C(C)(C)C)cc1NC(=O)Nc1ccc(N)cc1 have a reported pIC50 of at least 7?
Ans: class 0

Q: Hi, just wondering whether COC(=O)c1sc(C(C)(C)C)cc1NC(=O)Nc1ccc(F)cc1 shows pIC50 of 7 or higher.
Ans: class 0

###

target.or.test.system: Mitogen-activated protein kinase 14 (Homo sapiens, UniProt Q16539)
assay.text: Inhibition of Mitogen-activated protein kinase p38 alpha 2
Consider the following compounds; for each one, report its IC50.
Give bare numbers, in nM.

Solved entries (count: 3):
{"smiles.data": "COC(=O)COC(=O)c1sc(C(C)(C)C)cc1NC(=O)Nc1ccc(C)cc1", "value.type": "IC50", "value": 5310}
{"smiles.data": "CCOC(=O)c1sc(C(C)(C)C)cc1NC(=O)Nc1ccc(C)cc1", "value.type": "IC50", "value": 3020}
{"smiles.data": "COC(=O)c1sc(N)cc1NC(=O)Nc1ccc(C)cc1", "value.type": "IC50", "value": 441}

Provide the reported IC50 of each entry below, same order.
1. COC(=O)c1sc(C(C)(C)C)cc1NC(=O)Nc1ccc(C)cc1
2. COCCOC(=O)c1sc(C(C)(C)C)cc1NC(=O)Nc1ccc(C)cc1
3. CNC(=O)c1sc(C(C)(C)C)cc1NC(=O)Nc1ccc(C)cc1
4. Cc1ccc(NC(=O)Nc2cc(C(C)(C)C)sc2C(=O)OC(C)C)cc1
5. Cc1ccc(NC(=O)Nc2cc(C(C)(C)C)sc2C(=O)OCCCO)cc1
6. Cc1ccc(NC(=O)Nc2cc(C(C)(C)C)sc2C(=O)OCCO)cc1
7. CCCOC(=O)c1sc(C(C)(C)C)cc1NC(=O)Nc1ccc(C)cc1

Ans:
[413, 464, 34, 741, 56, 57, 482]

FYI, the data here is from ChEMBL document CHEMBL1134054.
